System: Rhino mouse
Experiment: Comedolytic effect of topical application to the Rhino mouse (comedone area)
Format: in vivo
Details: Mus musculus, 504 h; daily topical ca. 3 weeks, 70 vol % ethanol/30 vol % propylene glycol, dose 217 nmol/kg; mean ± SEM; read-out: Comedone Area (% Vehicle)
readout label: response vs control in vivo at 0.217 µmol/kg
Answer shape: numeric part, then the unit.

> print(dat)
                                   compound  recorded.result
1  C=C1[C@H](O)CC(=C/C=C2\CCC[C@@]3(C)C2CCC3[C@@H](C)CC(F)F)C[C@H]1O (stereo partly shown) [FF-55]              53%

-- ask Query the reported response vs control in vivo at 0.217 µmol/kg for Rhino mouse; item: C=C1[C@H](O)CC(=C/C=C2\CCC[C@@]3(C)C2CCC3[C@H](C)CC)C[C@H]1O (stereo partly drawn) [20R-2MBisP]
-- reply 136%

-- ask Provide the documented response vs control in vivo at 0.217 µmol/kg with Rhino mouse as the system for C=C1[C@H](O)CC(=C/C=C2\CCC[C@]3(C)C([C@@H](C)CC)CC[C@@H]23)C[C@H]1O (stereo partly shown) [2MBisP]
-- reply 49%

-- ask Checklist item: response vs control in vivo at 0.217 µmol/kg tested on Rhino mouse, entry C=C1[C@H](O)CC(=C/C=C2\CCCC3(C)C2CCC3C(C)C)C[C@H]1O (stereo partly shown) [2MP] , value?
-- reply 92%

-- ask Provide the documented response vs control in vivo at 0.217 µmol/kg with Rhino mouse as the system for C=C1[C@H](O)CC(=C/C=C2\CCC[C@@]3(C)C2CCC3[C@@H](C)CCC)C[C@H]1O (stereo partly shown) [2MTrisP]
-- reply 66%

-- ask Could you share what response vs control in vivo at 0.217 µmol/kg was measured for C=C1[C@H](O)CC(=C/C=C2\CCCC3(C)C(CC)CCC23)C[C@H]1O (stereo partly shown) [2MPregna] , tested on Rhino mouse?
-- reply 63%

-- ask Form field: response vs control in vivo at 0.217 µmol/kg recorded for C=C1[C@H](O)CC(=C/C=C2\CCC[C@@]3(C)C2CCC3[C@H](C)CC(F)F)C[C@H]1O (stereo partly shown) [FF-44] with Rhino mouse (enter value)
-- reply 47%

// data source = patent US9339509B2
